Ref: PubChem BioAssay AID1159580

- Experiment Description: chemical genetic growth profiling, strain panel (AID 1159580);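 further: tested at 20 µM; growth read once vehicle control cultures reached saturation at 30 °C; 1 = growth at the plate median or of vehicle wells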
- Test Context: S. cerevisiae deletion strains, growth OD, locus YJL164C, strain tpk1, stronger effect = lower value
About 2,000 (36%) of roughly 5,500 compounds were called active. Inconclusive results (about 18%) are left out. This is one part of the list.
Experimental Endpoint: normalized growth
Please reply with the number alone, leaving off any unit.

Q) Tell me the measured normalized growth of O=[N+]([O-])c1cc([As](=O)(O)O)ccc1O , please.
A) 1

Q) Also need Cc1ccc2c(Cl)cc(Cl)c(O)c2n1 , thanks.
A) 1.02

Q) Thanks! And CC(C)(C)NC[C@@H](O)COc1nsnc1N1CCOCC1 ?
A) 1.01

* * *

- Experiment Description: chemical genetic growth profiling, strain panel (AID 1159580)
- Test Context: S. cerevisiae deletion strains, growth OD, locus YJL095W, strain BCK1 (second series), stronger effect = lower value
Out of some 5,500 compounds screened, about 2,000 (36%) were called active. About 18% were inconclusive and are not listed. This is one part of the list.
Experimental Endpoint: normalized growth
Give only the figure.

compound="COC(=O)C[C@H]1C(C)(C)C(=O)[C@@H]2CC3=C4CC(=O)O[C@@H](c5ccoc5)[C@]4(C)CCC3[C@@]1(C)C2=O (stereo partly drawn)" number=0.992
compound="C=C(NC(=O)C(=C)NC(=O)c1csc(C2=NC3c4csc(n4)C4NC(=O)c5csc(n5)C(C(C)(O)C(C)O)NC(=O)C5CSC(=N5)C(=CC)NC(=O)C(C(C)O)NC(=O)c5csc(n5)C3(CC2)NC(=O)C(C)NC(=O)C(=C)NC(=O)C(C)NC(=O)C(C(C)CC)NC2C=Cc3c(C(C)O)cc(nc3C2O)C(=O)OC4C)n1)C(N)=O (stereo not drawn)" number=1.01
compound="CC1(C)CCCC2(C)C3C1[C@@H](O)C2(C)C[C@H]3O (stereo partly drawn)" number=0.988
compound=Oc1c(I)cc(I)c2cccnc12 number=0.0748
compound="CC1(C)C(C(Cl)Cl)C2(Cl)C(Cl)C(Cl)C1(Cl)C2(Cl)Cl (stereo not drawn)" number=0.983
compound="Nc1ncnc2c1ncn2C1O[C@H](COP(=O)(O)O)[C@@H](O)[C@H]1O (stereo partly drawn)" number=0.996

Q) Given O=C(NC(=O)c1c(F)cccc1F)Nc1ccc(Cl)cc1 , state its recorded normalized growth.
A) 1.01

Q) Can you check C=CCC1(C(C)CCC)C(=O)N=C(S)NC1=O (stereo not drawn) next?
A) 0.975

* * *

Listed next: entries and their corresponding normalized growth.
- Experiment Description: chemical genetic growth profiling, strain panel (AID 1159580)
- Test Context: S. cerevisiae deletion strains, growth OD, locus YGR229C, strain SMI1, stronger effect = lower value
Among all 5,500 compounds or so, about 2,000 (36%) were called active. Roughly 18% stayed inconclusive and do not appear here. This is one part of the list.
Provide a numeric answer; units are not to be included.

compound="CC(=O)OC1CC(OC(C)=O)C2(C)C(CC(OC(C)=O)C3(C)C2CCC2(C)C(c4ccoc4)CC4OC423)C1(C)C (stereo unspecified)" number=1.02
compound="CC1(C)C(O)CC(O)C2(C)C1CC(=O)C1(C)C2CCC2(C)C(C(=O)O)OC(=O)C3OC321 (stereo unspecified)" number=1.01
compound=CC(=O)NCCCCCC(=O)O number=1.01
compound="NCC(CC(=O)O)c1ccc(Cl)s1 (stereo unspecified)" number=0.958
compound=C[n+]1cccc(C(=O)[O-])c1 number=1.04

Q) Returns the measured normalized growth for the input compound. Input: CC(=O)N/C(=C/c1ccc2c(c1)OCO2)C(=O)O
A) 1.02

* * *

- Experiment Description: chemical genetic growth profiling, strain panel (AID 1159580);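 further: tested at 20 µM; growth read once vehicle control cultures reached saturation at 30 °C; 1 = growth at the plate median or of vehicle wells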
- Test Context: S. cerevisiae deletion strains, growth OD, locus YML120C, strain ndi1
Hit rate of the full screen: of about 5,500 compounds, about 2,000 (36%) were called active. Not shown: some 18% with an inconclusive outcome. Cut-off read from the data, not from the text of the source: active = normalized growth mostly below about 0.91 (no sharp cut-off); inconclusive = no clear call, values can overlap the other calls; inactive = mostly above about 0.92. The list shows a part of the results.
Log the outcome using a class from 1 for active, 0 for inactive

Examples from the recorded data:
molecule=CCN(CC)CCNC(=O)c1cc(S(C)(=O)=O)ccc1OC category=0
molecule=O=C(O)c1ccccc1Nc1cccc(C(F)(F)F)c1 category=1
molecule=OC[C@@H]1CCCN2CCCC[C@H]12 category=0
molecule=COc1ccc(C(Cl)=C(c2ccc(OC)cc2)c2ccc(OC)cc2)cc1 category=0
molecule="CCCC1O[C@@H]2CC3C4CCC5=CC(=O)C=CC5(C)C4[C@@H](O)CC3(C)[C@]2(C(=O)CO)O1 (some centres undefined)" category=0
molecule="CN1C(CC(=O)c2ccccc2)CCCC1CC(O)c1ccccc1 (centres undefined)" category=0
molecule=CCN(CC)CCOc1ccc2c(c1)C(=O)c1cc(OCCN(CC)CC)ccc1-2 category=0
molecule=COc1cc(C(=O)NCc2ccc(OCCN(C)C)cc2)cc(OC)c1OC category=0

Q) Lab log entry: O[N+]1=CC=CCC1=S.On1ccccc1=S.[Zn] — outcome as called in the assay?
A) 1

Q) Then Cc1ccc(/C(=C\CN2CCCC2)c2ccccn2)cc1 ?
A) 0

Q) Same question, CN/C(=C\[N+](=O)[O-])NCCSCc1ccc(CN(C)C)o1 this time
A) 0

Q) Please do the same for CC(C)(C)NC[C@@H](O)COc1nsnc1N1CCOCC1 as well.
A) 0

Q) Field entry: Oc1c(I)cc(Cl)c2cccnc12
A) 1

Q) Record: CN(C)CCOC(C)(c1ccccc1)c1ccccn1 (centres undefined)
A) 0

Q) Also CO[C@H]1/C=C/O[C@@]2(C)Oc3c(C)c(O)c4c(O)c(c(/C=N/N5CCN(C)CC5)c(O)c4c3C2=O)NC(=O)/C(C)=C\C=C\C(C)[C@H](O)[C@@H](C)[C@@H](O)[C@@H](C)[C@@H](OC(C)=O)[C@@H]1C (some centres undefined) , if possible.
A) 0

Q) Try this molecule too: C=C(CC)C(=O)c1ccc(OCC(=O)O)c(Cl)c1Cl
A) 0

Q) # repeat for COc1cc(OC)c2c(=O)c(-c3ccccc3)c(C)oc2c1OC
A) 0

Q) Please answer likewise for Oc1c(Cl)cc(Cl)c2cccnc12
A) 1

Q) Proceed to C/C=C/c1ccc2c(c1)OCO2
A) 0

* * *

- Experiment Description: chemical genetic growth profiling, strain panel (AID 1159580);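 further: tested at 20 µM; growth read once vehicle control cultures reached saturation at 30 °C; 1 = growth at the plate median or of vehicle wells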
- Test Context: S. cerevisiae deletion strains, growth OD, locus YJL168C, strain set2, stronger effect = lower value
Screen size: about 5,500 compounds; about 2,000 (36%) were called active. Roughly 18% stayed inconclusive and do not appear here. Some of the results follow.
Experimental Endpoint: normalized growth
The answer should be a number; do not append a unit.

compound="C=CCC1(C(C)CCC)C(=O)N=C(S)NC1=O (configuration not stated)" experimental_endpoint="normalized growth" number=0.983
compound=C/C=C/c1ccc2c(c1)OCO2 experimental_endpoint="normalized growth" number=1.01
compound="Cc1c(O)c(O)cc2c1CC=C1[C@@]2(C)CC[C@@]2(C)C3C[C@](C)(C(=O)O)CC[C@]3(C)CC[C@]12C (some centres not stated)" experimental_endpoint="normalized growth" number=0.979
compound=O=C1C=CC2=C3c4cc(O)c(O)cc4C[C@@]3(O)COC2=C1 experimental_endpoint="normalized growth" number=0.996
compound=O=C(CCCCCCCCCCCCC1CCCC1)Nc1ccc(S(=O)(=O)c2ccc(NC(=O)CCCCCCCCCCCCC3CCCC3)cc2)cc1 experimental_endpoint="normalized growth" number=1
compound="C=CC(C1=CC(=O)C=CC1=O)c1ccccc1 (configuration not stated)" experimental_endpoint="normalized growth" number=0.992
compound="C=CC(C1=CC(=O)C(OC)=CC1=O)c1ccccc1 (configuration not stated)" experimental_endpoint="normalized growth" number=0.953
compound=CC/C(=C(\c1ccccc1)c1ccc(OCCN(C)C)cc1)c1ccccc1 experimental_endpoint="normalized growth" number=0.057
compound=Oc1c(Cl)cc(Cl)c2cccnc12 experimental_endpoint="normalized growth" number=0.0626
compound="O=C(OC1Cc2c(O)cc(O)cc2OC1c1cc(O)c(O)c(O)c1-c1c(C2Oc3cc(O)cc(O)c3CC2OC(=O)c2cc(O)c(O)c(O)c2)cc(O)c(O)c1O)c1cc(O)c(O)c(O)c1 (configuration not stated)" experimental_endpoint="normalized growth" number=0.981

Q) Can you share its normalized growth? I mean this compound: O=C(O)CF
A) 0.986

* * *

- Experiment Description: chemical genetic growth profiling, strain panel (AID 1159580);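 further: tested at 20 µM; growth read once vehicle control cultures reached saturation at 30 °C; 1 = growth at the plate median or of vehicle wells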
- Test Context: S. cerevisiae deletion strains, growth OD, locus YGL078C, strain dbp3
Among all 5,500 compounds or so, about 2,000 (36%) were called active. Roughly 18% stayed inconclusive and do not appear here. Cut-off read from the data, not from the text of the source: active = normalized growth mostly below about 0.91 (no sharp cut-off); inconclusive = no clear call, values can overlap the other calls; inactive = mostly above about 0.92. Some of the results follow.
// classify into true (active), false (inactive)

mol_smiles=Nc1ccc(S(=O)(=O)Nc2ccccn2)cc1 category=false
mol_smiles=Nc1nc2ncc(C(=O)O)nc2c(=O)[nH]1 category=false
mol_smiles=CCOP(=S)(OCC)SCn1c(=O)oc2cc(Cl)ccc21 category=false
mol_smiles=O=C(O)c1cccnc1Nc1cccc(C(F)(F)F)c1 category=false
mol_smiles=C1CNCCN1 category=false
mol_smiles=O=C(O)/C=C/C=C/c1ccccc1 category=true

# evaluate next
Q) Call for entry CCC[C@H]1CC2=C(C[C@@H](CC)CC3=C1C(=O)OC3=O)C(=O)OC2=O :
A) true
